Target: FGFR3 (UniProt P22607)
Sequence (P22607 whole entry, looked up): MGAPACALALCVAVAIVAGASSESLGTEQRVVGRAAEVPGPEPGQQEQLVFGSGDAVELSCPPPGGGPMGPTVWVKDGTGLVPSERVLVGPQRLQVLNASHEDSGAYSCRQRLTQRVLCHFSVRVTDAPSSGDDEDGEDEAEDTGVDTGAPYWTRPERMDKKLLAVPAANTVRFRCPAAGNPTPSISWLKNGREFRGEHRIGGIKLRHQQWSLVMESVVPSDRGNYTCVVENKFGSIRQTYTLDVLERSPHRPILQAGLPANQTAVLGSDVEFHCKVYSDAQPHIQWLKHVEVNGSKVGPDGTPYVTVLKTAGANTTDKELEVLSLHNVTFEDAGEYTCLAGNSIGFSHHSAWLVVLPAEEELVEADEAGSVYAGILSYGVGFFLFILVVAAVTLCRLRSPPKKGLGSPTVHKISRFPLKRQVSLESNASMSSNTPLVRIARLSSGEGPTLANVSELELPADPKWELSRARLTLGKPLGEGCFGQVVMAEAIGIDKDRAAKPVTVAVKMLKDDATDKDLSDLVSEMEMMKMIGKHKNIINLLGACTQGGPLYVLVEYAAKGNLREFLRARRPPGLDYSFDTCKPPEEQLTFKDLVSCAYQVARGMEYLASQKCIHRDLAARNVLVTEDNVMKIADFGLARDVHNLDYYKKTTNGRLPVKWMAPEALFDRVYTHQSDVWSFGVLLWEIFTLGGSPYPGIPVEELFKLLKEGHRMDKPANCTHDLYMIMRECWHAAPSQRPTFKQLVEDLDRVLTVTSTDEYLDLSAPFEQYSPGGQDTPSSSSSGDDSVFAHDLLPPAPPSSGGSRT
Experiment: phosphorylation enrichment, bacterial display (enrichment ratio); higher = better substrate or ligand; peptides without Tyr show the background;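 note: 11-residue human phosphosite peptides and single-mutation variants displayed on the E. coli surface, counted by deep sequencing, each peptide's frequency after selection divided by its frequency in the unselected input library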;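 note: frequency after pTyr selection over input frequency; kinase dosed for 20-30% of maximal phosphorylation in three min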
parameter_measured: phosphorylation enrichment

* KWLEQYTQAIE [LSP1_Y234_Q229K] | 0.573
* VVTFSYKPAGN [RBL2_Y544_P547A] | 0.705
* LAARYYNWVSF [FLT4_Y1231] | 3.57
* PVDVAYRHGYF [PLEC_Y2967_R2969H] | 1.1
* RSFLSYFTSHV [NEFL_Y442_P440L_YF] | 1
* TVVGLYQKSSL [MYH7_Y609] | 0.75
* FARNSYVAGQF [G6PD_Y107_YF] | 0.522
* ERIEFYELNKK [PMM2_Y145_D148N] | 0.541
* LHQSTYQCFDV [SLC7A14_Y693_R695C_YF] | 1.11
* CTLLPYFSAPV [DGKE_Y269_R273P_YF] | 0.826
* LVKDPYVMFPQ [PLEKHG2_Y489_P484L] | 3.42
* VYYDLYGGEKF [PTPN11_Y66_D61V] | 12.8
* HNLDYYKMTTN [FGFR3_Y648_K650M] | 14
* KLPYPYDDPFS [GPX2_Y127] | 0.745
* GRFSGYKSKHG [EPHA3_Y570_C568S] | 0.392
* RASGIYYVPKG [APBB1IP_Y340] | 5.79
* PSTFRYERGSR [INPPL1_Y663_P659S_YF] | 0.429
* RRIHNYRGHLW [VHL_Y112_S111N] | 0.511
* LSDGPYSNSYE [EPOR_Y485_P488S] | 1.02
* QDTSRYTVCNL [BIRC3_Y245_S248C] | 0.469
* FGTAQYCCRMG [LRRK2_Y2023_I2020T_YF] | 0.517
* KAIMTYVFSFF [ACTN4_Y260_S262F_YF] | 0.725
* ETAENYLGFTA [HSPA9_Y181_H184Y_YF] | 0.807
* MTKEQYIKMNQ [ARFGEF2_Y797_R802Q] | 0.637
* KKLAEYGPQGK [CLCA1_Y147_R152K] | 0.295
* RKLVDYDSARH [BIN1_Y150] | 0.668
* FMLFQYLKQIE [RPAP3_Y569_D564Y_YF] | 0.783
* LGSNTYPFLLM [SAG_Y120_T125M] | 1.86
* AAQNCYKVTNG [TPI1_Y105] | 0.536
* PYYTSYPPSPD [GDAP2_Y491] | 3.57
* HELYVYKCDEN [DOCK3_Y548] | 1.05
* PNRILYGDFQQ [MYH7_Y715_R719Q] | 0.475
* PLQKIYNFNVL [SLC4A1_Y553_T552I_YF] | 0.684
* LEGEEYRMSGE [KRT3_Y511] | 0.929
* HGVSSYDTIIS [LDLR_Y465_V468I] | 0.785
* DGTGHYLCNAC [GATA5_Y208] | 0.416
* QAEELYFGKMG [YES1_Y159_W158L] | 1.55
* ILGRTYFVNHE [NEDD4_Y627_YF] | 0.605
* PADRAYSWFQH [NDST1_Y711_YF] | 1.14
* SVTCTYSAALN [TP53_Y126_P128A] | 0.929
* TDEFEYDELIV [TGM1_Y136_YF] | 2.03
* KVITDYYVDMK [MPP4_Y566] | 2.64
* QTENKYVSVSG [EIF2AK3_Y565_D566V] | 0.581
* SIVEDYRPPFY [ACVRL1_Y421_G416S] | 0.743
* RLGNQYVNVMN [SLC3A1_Y461] | 0.991
* GMRHGHGVRQS [JPH2_Y141_Y141H] | 0.696
* CTTIHYTFMCN [TP53_Y234_N235T_YF] | 0.754
* EDKFMYFEFPQ [PTEN_Y240] | 7.33
* FQRLQYIKQLG [SAMHD1_Y146_R145Q] | 0.517
* SDYSRYARTSI [TERT_Y949_S948R] | 0.351
* RSRSPYSPVLR [CDK13_Y399] | 0.584
* GENTVYAQVFN [LY9_Y603_M602V] | 0.616
* AKNKDYMSFIR [GNE_Y197_I200F] | 0.478
* PEVRRCVLPLN [RPE65_Y368_Y368C] | 0.774
* AEFGLYGAMVR [VSX2_Y222_YF] | 0.715
* RLFARYFQGDL [PDK3_Y337_YF] | 0.627
* SGDDGYAKDAQ [TENM4_Y1530_K1535Q] | 0.615
